EXPERIMENTAL SYSTEM: TRPML3 (Homo sapiens, UniProt Q8TDD5)
Construct: expressed in transfected cells
Sequence (Q8TDD5 whole entry): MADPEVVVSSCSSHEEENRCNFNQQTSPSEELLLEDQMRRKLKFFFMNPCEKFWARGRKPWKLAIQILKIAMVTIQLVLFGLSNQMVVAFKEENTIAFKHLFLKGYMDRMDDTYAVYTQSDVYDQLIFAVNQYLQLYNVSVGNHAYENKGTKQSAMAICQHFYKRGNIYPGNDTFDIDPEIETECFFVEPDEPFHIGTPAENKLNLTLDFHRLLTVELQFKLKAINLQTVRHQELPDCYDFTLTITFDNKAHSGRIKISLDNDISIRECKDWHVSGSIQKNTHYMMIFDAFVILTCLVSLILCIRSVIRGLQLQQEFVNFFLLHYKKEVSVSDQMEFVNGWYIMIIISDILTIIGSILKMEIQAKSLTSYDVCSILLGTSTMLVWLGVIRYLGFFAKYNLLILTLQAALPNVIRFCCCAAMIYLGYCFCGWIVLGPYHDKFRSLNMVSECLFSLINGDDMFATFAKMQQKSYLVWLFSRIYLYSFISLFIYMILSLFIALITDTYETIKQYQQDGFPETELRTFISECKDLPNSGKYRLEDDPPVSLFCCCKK
MEASUREMENT PROTOCOL: Fluorescent TRPML3 assay (performed as for TRPML1, substituting the TRPML3 subtype)
Format: cell-based
CONDITION: fluorescent calcium assay
pEC50: −log10 of the molar value.
REPORTED ENDPOINT: pEC50

So, Cc1nccnc1-c1cn(-c2cccc(OC(F)(F)F)c2)c2ncnc(N3CCN(C(=O)OC(C)(C)C)C[C@@H]3C)c12 ? Its pEC50 was 6.30 to 7.00

pEC50 in this record for CCN(CCOC)c1cn(-c2cc(C#N)ccn2)c2ncnc(N3CCN(C(=O)OC(C)(C)C)C[C@@H]3C)c12 : > 7.00

So for C[C@H]1CN(C(=O)OC(C)(C)C)CCN1c1ncnc2c1c(N1CCOCC1)cn2-c1cccc(Cl)c1 , the logged pEC50 turned out to be > 7.00

Per the records, this compound ( C[C@@H]1CN(c2ncnc3c2c(-c2ccccc2F)cn3-c2cccnc2)[C@@H](C)CN1C(=O)OC(C)(C)C ) has pEC50 equal to > 7.00

* * *

EXPERIMENTAL SYSTEM: TRPML2 (Homo sapiens, UniProt Q8IZK6)
Construct: expressed in transfected cells
Sequence (Q8IZK6 whole entry): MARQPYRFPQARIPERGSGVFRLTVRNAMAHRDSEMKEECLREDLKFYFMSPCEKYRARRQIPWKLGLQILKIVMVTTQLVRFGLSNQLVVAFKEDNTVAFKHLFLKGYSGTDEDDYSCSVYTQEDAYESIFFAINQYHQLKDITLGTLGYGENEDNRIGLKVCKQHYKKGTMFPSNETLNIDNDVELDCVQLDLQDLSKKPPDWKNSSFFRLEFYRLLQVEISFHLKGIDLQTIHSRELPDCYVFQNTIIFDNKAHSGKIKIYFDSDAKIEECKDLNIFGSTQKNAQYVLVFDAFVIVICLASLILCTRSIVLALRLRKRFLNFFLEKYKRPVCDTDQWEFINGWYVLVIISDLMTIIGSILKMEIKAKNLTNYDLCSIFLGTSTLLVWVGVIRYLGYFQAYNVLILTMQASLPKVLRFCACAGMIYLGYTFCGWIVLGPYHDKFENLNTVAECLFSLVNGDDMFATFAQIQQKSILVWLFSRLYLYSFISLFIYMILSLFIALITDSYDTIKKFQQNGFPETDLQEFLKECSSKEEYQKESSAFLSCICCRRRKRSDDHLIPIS
MEASUREMENT PROTOCOL: Fluorescent TRPML2 assay (performed as for TRPML1, substituting the TRPML2 subtype)
Type: cell-based
REPORTED ENDPOINT: EC50

The reported value for CC(C)c1cn(-c2cc(F)ccn2)c2ncnc(N3C[C@@H](C)N(C(=O)OC(C)(C)C)C[C@@H]3C)c12 [Compound 698] in terms of EC50 is 100 to 500 nM

The compound identified as C[C@@H]1CN(c2ncnc3c2c(C2CCC2)cn3-c2cc(C#N)ccn2)[C@@H](C)CN1C(=O)OC(C)(C)C [Compound 710] registered its EC50 at 100 to 500 nM

Given item C[C@H]1CN(C(=O)OC(C)(C)C)CCN1c1nccc2c1c(C1(C)CC1)cn2-c1cc(C#N)ccn1 [Compound 612] , the value recorded as its EC50 is 500 to 2000 nM

Short answer for [2H]C([2H])([2H])[C@@H]1CN(c2ncnc3c2c(C(F)(F)F)cn3-c2cc(C#N)ccn2)[C@@H](C)CN1C(=O)OC(C)(C)C [Compound 707] : EC50 was < 100 nM

Record summary for C[C@@H]1CN(c2ncnc3c2c(-c2ccccc2F)cn3-c2cc(C(F)(F)F)ccn2)[C@@H](C)CN1C(=O)OC(C)(C)C [Compound 649] : reported EC50 = < 100 nM

Memo: C[C@@H]1CN(c2ncnc3c2c(C(C)(C)C)cn3-c2nccc(C#N)n2)[C@@H](C)CN1C(=O)OC(C)(C)C [Compound 532] , reported EC50: 500 to 2000 nM

Record C[C@@H]1CN(c2ncnc3c2c(N2CC4(COC4)C2)cn3-c2cc(C#N)ccn2)[C@@H](C)CN1C(=O)OC(C)(C)C [Compound 504] , field EC50: 100 to 500 nM

# EC50 (compound: C[C@@H]1CN(c2ncnc3c2c(OC(F)F)cn3-c2cc(Cl)ccn2)[C@@H](C)CN1C(=O)OC(C)(C)C [Compound 521] ) is 500 to 2000 nM

Field EC50 (entry C[C@@H]1CN(c2ncnc3c2c(C(F)(F)F)cn3-c2nccc(C#N)n2)[C@@H](C)CN1C(=O)OC(C)(C)C [Compound 510] ) reads > 2000 nM

# EC50 of CC(C)(C)OC(=O)N1CCN(c2ncnc3c2c(C(F)F)cn3-c2cc(C#N)ccn2)CC1 [Compound 609] = 500 to 2000 nM

Lab note: measured EC50 of C[C@@H]1CN(c2ncnc3c2c(C(F)(F)F)cn3C2CCCCC2)[C@@H](C)CN1C(=O)OC(C)(C)C [Compound 625] was > 2000 nM

In plain terms, CC(C)c1cn(-c2cc(C#N)ccn2)c2ncnc(N3C[C@@H](C)N(C(=O)OC(C)(C)C)C[C@@H]3C)c12 [Compound 700] has a documented EC50 of 100 to 500 nM

EC50 measured on C[C@@H]1CN(c2ncnc3c2c(N2CCC2)cn3-c2cccc(F)c2)[C@@H](C)CN1C(=O)OC(C)(C)C [Compound 635] = 100 to 500 nM

According to the records, this compound Cc1cn(-c2cc(F)ccn2)c2ccnc(N3C[C@@H](C)N(C(=O)OC(C)(C)C)C[C@@H]3C)c12 [Compound 701] displays EC50 of > 2000 nM
